- assay-protocol: 1-Octanol/phosphate buffered-saline distribution coefficient, logD of compound at pH 7.4 measured after 4 hrs by LC-MS analysis
- Type: physicochemical
Positions of bridges follow the written chain, without caps; N, C: chain ends. Non-standard residues stand in square brackets, D forms with d. Residues, ends and D or L forms follow the SMILES beside them. NMeNle = CCCC[C@H](NC)C(=O)O; Nle = CCCC[C@H](N)C(=O)O
property-label: logD at 4 h

Completed entries (count: 4):
[
  {
    "compound": "CCCC[C@@H]1NC(=O)[C@H](CCCC)N(C)C(=O)[C@H](CCCC)NC(=O)[C@H](CCCC)N(C)C(=O)[C@@H](Cc2ccccc2)NC(=O)CSC[C@H](C(=O)NC)NC1=O",
    "quantitative-readout": 4.2
  },
  {
    "compound": "CCCC[C@@H]1NC(=O)[C@H](Cc2ccccc2)NC(=O)CSC[C@@H](C(=O)NC)NC(=O)[C@H](CCCC)N(C)C(=O)[C@H](CCCC)N(C)C(=O)[C@H](CCCC)N(C)C(=O)[C@H](CCCC)NC(=O)[C@H](CCCC)N(C)C1=O ({CH2CO}-F[Nle][NMeNle][Nle][NMeNle][NMeNle][NMeNle]C-NHMe; thioether N-8)",
    "quantitative-readout": 6.1
  },
  {
    "compound": "CCCC[C@@H]1NC(=O)[C@H](CCCC)NC(=O)[C@H](CCCC)NC(=O)[C@@H](Cc2ccccc2)NC(=O)CSC[C@H](C(=O)NC)NC(=O)[C@H](CCCC)NC1=O",
    "quantitative-readout": 3.6
  },
  {
    "compound": "CCCC[C@@H]1NC(=O)[C@H](Cc2ccccc2)NC(=O)CSC[C@H](C(=O)NC)NC(=O)[C@H](CCCC)N(C)C(=O)[C@H](CCCC)NC(=O)[C@H](CCCC)N(C)C1=O",
    "quantitative-readout": 4.6
  }
]

[P] CCCC[C@@H]1NC(=O)[C@H](Cc2ccccc2)NC(=O)CSC[C@H](C(=O)NC)NC(=O)[C@H](CCCC)NC(=O)[C@H](CCCC)NC(=O)[C@H](CCCC)NC1=O
[Q] CCCC[C@@H]1NC(=O)[C@H](CCCC)N(C)C(=O)[C@H](CCCC)NC(=O)[C@H](CCCC)N(C)C(=O)[C@H](CCCC)NC(=O)[C@H](CCCC)N(C)C(=O)[C@@H](Cc2ccccc2)NC(=O)CSC[C@@H](C(=O)NC)NC1=O
Of P versus Q , which is the one with smaller reported logD at 4 h? # respond with the chosen item's label
P
(P: 3.6, Q: 6)

###

- assay-protocol: Clearance in Sprague-Dawley rat at 5 mg/kg, po or 0.5 mg/kg, iv measured up to 24 hrs by HPLC-MS/MS analysis
- Type: ADME, organism-based
- assay-setup: in vivo
Positions of bridges follow the written chain, without caps; N, C: chain ends. Non-standard residues stand in square brackets, D forms with d. Residues, ends and D or L forms follow the SMILES beside them. NMeNle = CCCC[C@H](NC)C(=O)O; Nle = CCCC[C@H](N)C(=O)O
property-label: clearance (mL/min/kg)

Completed entries (count: 3):
[
  {
    "compound": "CCCC[C@@H]1NC(=O)[C@H](Cc2ccccc2)NC(=O)CSC[C@H](C(=O)NC)NC(=O)[C@H](CCCC)N(C)C(=O)[C@H](CCCC)NC(=O)[C@H](CCCC)N(C)C1=O",
    "clearance (mL/min/kg)": 8.9
  },
  {
    "compound": "CCCC[C@@H]1NC(=O)[C@H](CCCC)NC(=O)[C@H](CCCC)N(C)C(=O)[C@@H]2CCCN2C(=O)[C@H](CCCC)N(C)C(=O)[C@H](Cc2ccccc2)NC(=O)CSC[C@@H](C(=O)NC)NC1=O ({CH2CO}-F[NMeNle]P[NMeNle][Nle][Nle]C-NHMe; thioether N-7)",
    "clearance (mL/min/kg)": 106
  },
  {
    "compound": "CCCC[C@@H]1NC(=O)[C@H](Cc2ccccc2)NC(=O)CSC[C@@H](C(=O)NC)NC(=O)[C@H](CCCC)N(C)C(=O)[C@H](CCCC)N(C)C(=O)[C@H](CCCC)N(C)C(=O)[C@H](CCCC)NC(=O)[C@H](CCCC)N(C)C1=O ({CH2CO}-F[Nle][NMeNle][Nle][NMeNle][NMeNle][NMeNle]C-NHMe; thioether N-8)",
    "clearance (mL/min/kg)": 12
  }
]

[I] CCCC[C@@H]1NC(=O)[C@H](Cc2ccccc2)NC(=O)CSC[C@H](C(=O)NC)NC(=O)[C@H](CCCC)NC(=O)[C@H](CCCC)NC(=O)[C@H](CCCC)NC1=O
[II] CCCC[C@@H]1NC(=O)[C@H](Cc2ccccc2)N(C)C(=O)CSC[C@H](C(=O)NC)N(C)C(=O)[C@H](CCCC)NC(=O)[C@H](CCCC)N(C)C(=O)C2CCCN2C1=O (stereo not given in full)
Could you point out whether the larger clearance belongs to I or to II ? # respond with the chosen item's label
I
